Source listed as patent US7169931B2.

SYSTEM: human TPO receptor (Homo sapiens, UniProt P40238)
Sequence (P40238 26-635): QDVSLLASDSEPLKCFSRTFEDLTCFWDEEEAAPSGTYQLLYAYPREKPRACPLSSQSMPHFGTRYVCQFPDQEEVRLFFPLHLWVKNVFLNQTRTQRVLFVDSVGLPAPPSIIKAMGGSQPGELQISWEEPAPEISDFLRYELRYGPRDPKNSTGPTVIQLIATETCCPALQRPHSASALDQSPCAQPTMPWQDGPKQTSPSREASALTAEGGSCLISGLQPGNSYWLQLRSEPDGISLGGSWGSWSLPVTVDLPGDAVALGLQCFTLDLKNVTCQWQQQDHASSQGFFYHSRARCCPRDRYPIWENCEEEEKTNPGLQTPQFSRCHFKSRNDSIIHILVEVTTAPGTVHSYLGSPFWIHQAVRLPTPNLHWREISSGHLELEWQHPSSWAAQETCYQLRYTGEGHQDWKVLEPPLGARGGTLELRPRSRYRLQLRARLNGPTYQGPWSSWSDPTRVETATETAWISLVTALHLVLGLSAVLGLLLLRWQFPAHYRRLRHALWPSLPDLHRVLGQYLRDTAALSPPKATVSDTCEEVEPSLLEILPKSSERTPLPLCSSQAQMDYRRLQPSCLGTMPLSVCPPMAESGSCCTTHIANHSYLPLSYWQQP
ASSAY NAME: Thrombopoietic activity: proliferation of TPO dependent BaF/hTPOR cells (WST-1)
CONDITION DETAILS: BaF/hTPOR cell line (BaF-B03 with human TPO receptor), without IL-3; 20 hours incubation + 4 hours WST-1, absorbance 450 nm; ED50 = half concentration of the concentration showing maximum thrombopoietic activity
READOUT: EC50 (nM)

[[record]]
molecule = "CCCc1cccc(-c2csc(NC(=O)c3ccc4c(c3)CCC(C(=O)O)C4)n2)c1F (stereo not shown) [Compound B-20]"
readout_unit = "nM"
numeric_readout = 68

[[record]]
molecule = "O=C(Nc1nc(-c2ccc(Cl)c(Cl)c2)cs1)c1ccc2c(c1)C(F)CC(C(=O)O)C2 (stereo not shown) [Compound A-9]"
readout_unit = "nM"
numeric_readout = 306

[[record]]
molecule = "COC(=O)C1Cc2ccc(C(=O)Nc3nc(-c4ccc(Cl)c(Cl)c4)cs3)cc2C(=O)C1F (stereo not shown) [Compound A-11]"
readout_unit = "nM"
numeric_readout = 552

[[record]]
molecule = "CCOC(c1cccc(-c2csc(NC(=O)c3ccc4c(c3)CCC(C(=O)O)C4)n2)c1F)C(C)C (stereo not shown) [Compound B-25]"
readout_unit = "nM"
numeric_readout = 38

[[record]]
molecule = "O=C(Nc1nc(-c2ccc(Cl)c(Cl)c2)cs1)c1ccc2c(c1)C(=O)CC(C(=O)O)C2 (stereo not shown) [Compound A-6]"
readout_unit = "nM"
numeric_readout = 210

[[record]]
molecule = "CCOCCc1cccc(-c2csc(NC(=O)c3ccc4c(c3)CCC(C(=O)O)C4)n2)c1F (stereo not shown) [Compound B-30]"
readout_unit = "nM"
numeric_readout = 142

[[record]]
molecule = "CCCCCc1cccc(-c2csc(NC(=O)c3ccc4c(c3)CCC(C(=O)O)C4)n2)c1F (stereo not shown) [Compound B-5]"
readout_unit = "nM"
numeric_readout = 56

[[record]]
molecule = "O=C(Nc1nc(-c2ccc(Cl)c(Cl)c2)cs1)c1ccc2c(c1)CC(C(=O)O)CC2 (stereo not shown) [Compound A-3]"
readout_unit = "nM"
numeric_readout = 965

[[record]]
molecule = "Cc1sc(NC(=O)c2ccc3c(c2)CCC(C(=O)O)C3)nc1-c1cccc(C(F)(F)F)c1 (stereo not shown) [Compound B-17]"
readout_unit = "nM"
numeric_readout = 146

[[record]]
molecule = "CCOC(=O)C1=Cc2ccc(C(=O)Nc3nc(-c4cccc(C(F)(F)F)c4F)cs3)cc2C1 [Compound D-4]"
readout_unit = "nM"
numeric_readout = 250

[[record]]
molecule = "CCOC(C)(C)c1cccc(-c2csc(NC(=O)c3ccc4c(c3)CCC(C(=O)O)C4)n2)c1F (stereo not shown) [Compound B-32]"
readout_unit = "nM"
numeric_readout = 96

[[record]]
molecule = "O=C(Nc1nc(-c2ccc3c(c2)CCCC3)cs1)c1ccc2c(c1)CCC(C(=O)O)C2 (stereo not shown) [Compound B-2]"
readout_unit = "nM"
numeric_readout = 214

[[record]]
molecule = "O=C(Nc1nc(-c2ccc(Cl)c(Cl)c2)c(F)s1)c1ccc2c(c1)CCC(C(=O)O)C2 (stereo not shown) [Compound B-10]"
readout_unit = "nM"
numeric_readout = 48

[[record]]
molecule = "O=C(Nc1nc(-c2cccc(C3CCCC3)c2F)cs1)c1ccc2c(c1)CCC(C(=O)O)C2 (stereo not shown) [Compound B-18]"
readout_unit = "nM"
numeric_readout = 72

[[record]]
molecule = "O=C(Nc1nc(-c2cccc(CCc3ccccc3)c2F)cs1)c1ccc2c(c1)CCC(C(=O)O)C2 (stereo not shown) [Compound B-15]"
readout_unit = "nM"
numeric_readout = 59

[[record]]
molecule = "O=C(Nc1nc(-c2cccc(C(F)(F)F)c2)cs1)c1ccc2c(c1)CCC(C(=O)O)C2 (stereo not shown) [Compound B-8]"
readout_unit = "nM"
numeric_readout = 120

